Tested on: Escherichia coli TOP10
Test: shrunken log2 fold change of peptide-encoding DNA abundance (4.5 h post-induction vs induction); higher = less antimicrobial activity (less host growth inhibition)
Conditions: time post-induction: 4.5 h; library: site-saturation at positions 5, 18, 19, 20
Field: shrunken log2 fold change. Provide a value for each of the sequences that follow.
Write no unit; give the number alone.

Provide measured shrunken log2 fold change on Escherichia coli TOP10 for RRIRLRPPRLPRPRPRPPQKPRP please.
0.131

Please indicate recorded shrunken log2 fold change of RRIRERPPRLPRPRPRPGCKPRP measured with Escherichia coli TOP10.
0.0591

Provide shrunken log2 fold change, system Escherichia coli TOP10, entry RRIRHRPPRLPRPRPRPFGYPRP
-0.133

Provide shrunken log2 fold change, system Escherichia coli TOP10, entry RRIRLRPPRLPRPRPRPHPGPRP
0.242

Fill in: shrunken log2 fold change on Escherichia coli TOP10, entry RRIRGRPPRLPRPRPRPWLVPRP
0.422

# return shrunken log2 fold change for RRIRKRPPRLPRPRPRPCENPRP , test system: Escherichia coli TOP10
0.0184

Under Escherichia coli TOP10: report shrunken log2 fold change of RRIRQRPPRLPRPRPRPCRWPRP .
-0.0062

Please indicate recorded shrunken log2 fold change of RRIRMRPPRLPRPRPRPPEIPRP measured with Escherichia coli TOP10.
0.48

Report shrunken log2 fold change on Escherichia coli TOP10 for this entry: RRIRSRPPRLPRPRPRPSDGPRP
-0.124

Give shrunken log2 fold change for RRIRMRPPRLPRPRPRPKIMPRP tested on Escherichia coli TOP10.
-0.208

Enter recorded shrunken log2 fold change with Escherichia coli TOP10 for RRIRFRPPRLPRPRPRPCQNPRP here.
0.0482

Param request: shrunken log2 fold change | system Escherichia coli TOP10 | item RRIRWRPPRLPRPRPRPWWWPRP
0.12

Fill in shrunken log2 fold change for RRIRPRPPRLPRPRPRPAMWPRP tested with Escherichia coli TOP10.
0.251

Give shrunken log2 fold change; test system Escherichia coli TOP10; sequence RRIRERPPRLPRPRPRPSGLPRP
-0.195

Fill in shrunken log2 fold change for RRIRYRPPRLPRPRPRPKNIPRP tested with Escherichia coli TOP10.
-0.127

Provide shrunken log2 fold change, tested on Escherichia coli TOP10, for RRIRERPPRLPRPRPRPLHIPRP .
-0.404

Param request: shrunken log2 fold change | system Escherichia coli TOP10 | item RRIRCRPPRLPRPRPRPVQFPRP
0.13

Give shrunken log2 fold change only, for RRIRDRPPRLPRPRPRPDMHPRP , using Escherichia coli TOP10 data.
0.633

Supply shrunken log2 fold change measured with Escherichia coli TOP10 for RRIRPRPPRLPRPRPRPRELPRP .
0.39

Determine reported shrunken log2 fold change for RRIRMRPPRLPRPRPRPAQCPRP ; test system: Escherichia coli TOP10.
0.0203

State shrunken log2 fold change on Escherichia coli TOP10. Entry: RRIRWRPPRLPRPRPRPKWHPRP
0.184

Would you please give the reported shrunken log2 fold change of RRIRSRPPRLPRPRPRPTEAPRP with Escherichia coli TOP10?
0.0706

# lookup: Escherichia coli TOP10 shrunken log2 fold change, key = RRIRERPPRLPRPRPRPEQQPRP
-0.0255

Print Escherichia coli TOP10 shrunken log2 fold change for RRIRERPPRLPRPRPRPVECPRP .
-0.152

Give the observed shrunken log2 fold change of RRIRMRPPRLPRPRPRPSTTPRP for Escherichia coli TOP10.
0.352

Write down the reported shrunken log2 fold change (system: Escherichia coli TOP10) of RRIRGRPPRLPRPRPRPMTFPRP
0.536

Give shrunken log2 fold change for this entry on Escherichia coli TOP10: RRIRIRPPRLPRPRPRPMTLPRP
0.0505

Look up and report measured shrunken log2 fold change (Escherichia coli TOP10) for the following sequence: RRIRWRPPRLPRPRPRPAPNPRP
3.12

Give shrunken log2 fold change for this entry on Escherichia coli TOP10: RRIRIRPPRLPRPRPRPYDQPRP
-0.295

Provide shrunken log2 fold change, tested on Escherichia coli TOP10, for RRIRFRPPRLPRPRPRPAACPRP .
0.0906

GET shrunken log2 fold change where system = Escherichia coli TOP10 and item = RRIRERPPRLPRPRPRPDFYPRP
-0.491

State measured shrunken log2 fold change of the sequence RRIRARPPRLPRPRPRPQNDPRP with Escherichia coli TOP10.
5.63e-05

Please tell me the measured shrunken log2 fold change for RRIRYRPPRLPRPRPRPRMMPRP ; system: Escherichia coli TOP10.
0.0163

Answer briefly: shrunken log2 fold change recorded on Escherichia coli TOP10 for RRIRYRPPRLPRPRPRPQEDPRP
-0.135

Answer briefly: shrunken log2 fold change recorded on Escherichia coli TOP10 for RRIRCRPPRLPRPRPRPHPYPRP
-0.296

Fill in: shrunken log2 fold change on Escherichia coli TOP10, entry RRIRHRPPRLPRPRPRPVEWPRP
0.123

Fill in shrunken log2 fold change for RRIRRRPPRLPRPRPRPQFDPRP tested with Escherichia coli TOP10.
0.107

Write down measured shrunken log2 fold change (Escherichia coli TOP10) for this sequence. RRIRARPPRLPRPRPRPNFPPRP
-0.0362

Write shrunken log2 fold change of RRIRVRPPRLPRPRPRPAGVPRP ; system used: Escherichia coli TOP10
0.283

Name the recorded shrunken log2 fold change of RRIRQRPPRLPRPRPRPWHKPRP , assay system Escherichia coli TOP10.
-0.334

Report shrunken log2 fold change from Escherichia coli TOP10 testing of RRIRCRPPRLPRPRPRPNFDPRP
-0.179

Enter recorded shrunken log2 fold change with Escherichia coli TOP10 for RRIRARPPRLPRPRPRPTYWPRP here.
0.144

Answer with shrunken log2 fold change of RRIRTRPPRLPRPRPRPRIPPRP measured for Escherichia coli TOP10.
0.00212

Under Escherichia coli TOP10: report shrunken log2 fold change of RRIRLRPPRLPRPRPRPDRMPRP .
-0.0414

Identify measured shrunken log2 fold change obtained with Escherichia coli TOP10 for RRIRLRPPRLPRPRPRPNASPRP .
0.0769

Look up Escherichia coli TOP10 data: shrunken log2 fold change of RRIRFRPPRLPRPRPRPYDEPRP , then report it.
-0.526

Check Escherichia coli TOP10 data and give shrunken log2 fold change for RRIRPRPPRLPRPRPRPRSFPRP .
0.0582

For Escherichia coli TOP10, give shrunken log2 fold change of the listed sequence: RRIRGRPPRLPRPRPRPTNVPRP
0.141

Recall the reported shrunken log2 fold change of RRIRGRPPRLPRPRPRPKSRPRP when tested on Escherichia coli TOP10.
0.0451

Please report the measured shrunken log2 fold change for RRIRGRPPRLPRPRPRPPGQPRP tested on Escherichia coli TOP10.
0.976

Given RRIRLRPPRLPRPRPRPSMVPRP , report its shrunken log2 fold change on Escherichia coli TOP10.
-0.665

Determine reported shrunken log2 fold change for RRIRNRPPRLPRPRPRPTCGPRP ; test system: Escherichia coli TOP10.
0.073

Report value only: shrunken log2 fold change, Escherichia coli TOP10, RRIRARPPRLPRPRPRPTPCPRP
0.323

Write down measured shrunken log2 fold change (Escherichia coli TOP10) for this sequence. RRIRHRPPRLPRPRPRPYPPPRP
-0.694

// output shrunken log2 fold change; input RRIRPRPPRLPRPRPRPLQYPRP ; system Escherichia coli TOP10
-0.478

Report measured shrunken log2 fold change on Escherichia coli TOP10; entry: RRIRKRPPRLPRPRPRPLCMPRP
0.081

Please tell me the measured shrunken log2 fold change for RRIRYRPPRLPRPRPRPTLQPRP ; system: Escherichia coli TOP10.
0.201

Fill: shrunken log2 fold change (Escherichia coli TOP10) for this sequence RRIRQRPPRLPRPRPRPVMKPRP
-0.212

Provide the reported shrunken log2 fold change (system: Escherichia coli TOP10) for RRIRRRPPRLPRPRPRPPTHPRP
0.622

Please look at RRIRVRPPRLPRPRPRPNNLPRP and tell me its recorded shrunken log2 fold change on Escherichia coli TOP10.
-0.534

Provide shrunken log2 fold change, system Escherichia coli TOP10, entry RRIRTRPPRLPRPRPRPICRPRP
0.0229

Please report the measured shrunken log2 fold change for RRIRGRPPRLPRPRPRPRERPRP tested on Escherichia coli TOP10.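 Also: peptides expressed intracellularly from a pBAD plasmid library in pooled LB shake-flask culture, induced with 0.3% L-arabinose, DNA abundance read by NGS, three biological replicates, DESeq2 with apeglm shrinkage.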
0.789

Send back Escherichia coli TOP10 shrunken log2 fold change of RRIRTRPPRLPRPRPRPWARPRP only.
-0.00874

Source listed as the supplement of paper PMC9112550.
